Source: ChEMBL document CHEMBL3632558

Documented MIC across a set of compounds
Tested on: Staphylococcus epidermidis
test_summary: Antibacterial activity against methicillin-sensitive Staphylococcus epidermidis 14-2 after 18 to 24 hrs
Format: functional
Give the value in µg/mL but do not write µg/mL after it.

These solved cases illustrate the format of a correct answer.
NCC1CN(c2nc3c(cc2F)c(=O)c(C(=O)O)cn3[C@@H]2C[C@@H]2F)C/C1=N\OCc1ccc([N+](=O)[O-])cc1 (some centres not stated)
128
CC1(CN)CN(c2nc3c(cc2F)c(=O)c(C(=O)O)cn3[C@@H]2C[C@@H]2F)C/C1=N\OCc1ccccc1 (some centres not stated)
16
C[C@H]1COc2c(N3CCN(C)CC3)c(F)cc3c(=O)c(C(=O)O)cn1c23.C[C@H]1COc2c(N3CCN(C)CC3)c(F)cc3c(=O)c(C(=O)O)cn1c23.O
128
NCC1CN(c2nc3c(cc2F)c(=O)c(C(=O)O)cn3[C@@H]2C[C@@H]2F)C/C1=N\OCc1ccc(Cl)cc1 (some centres not stated)
16
COc1c(N2C[C@@H]3CCCN[C@@H]3C2)c(F)cc2c(=O)c(C(=O)O)cn(C3CC3)c12
32

Now consider the entry below.
Request: Query: MIC; subject: CCO/N=C1\CN(c2nc3c(cc2F)c(=O)c(C(=O)O)cn3[C@@H]2C[C@@H]2F)CC1(C)CN (some centres not stated)
Result: 8

====

System: Staphylococcus aureus
test_summary: Antibacterial activity against methicillin-sensitive Staphylococcus aureus 14-3 after 18 to 24 hrs
Type: functional
measure: MIC (µg/mL)
Give the value in µg/mL but do not write µg/mL after it.

These solved cases illustrate the format of a correct answer.
NC1CN(c2nc3c(cc2F)c(=O)c(C(=O)O)cn3[C@@H]2C[C@@H]2F)C/C1=N\OCc1ccccc1 (some centres undefined)
0.5
NCC1CN(c2nc3c(cc2F)c(=O)c(C(=O)O)cn3[C@@H]2C[C@@H]2F)C/C1=N\OCc1ccc([N+](=O)[O-])cc1 (some centres undefined)
0.03
CO/N=C1\CN(c2nc3c(cc2F)c(=O)c(C(=O)O)cn3[C@@H]2C[C@@H]2F)CC1(C)N (some centres undefined)
0.5

Request: Query: MIC; subject: CO/N=C1\CN(c2nc3c(cc2F)c(=O)c(C(=O)O)cn3[C@@H]2C[C@@H]2F)CC1N (some centres undefined)
Result: 1

Request: Query: MIC; subject: CC1(N)CN(c2nc3c(cc2F)c(=O)c(C(=O)O)cn3[C@@H]2C[C@@H]2F)C/C1=N\OCc1ccccc1 (some centres undefined)
Result: 0.5

Request: Query: MIC; subject: COc1ccc(CO/N=C2\CN(c3nc4c(cc3F)c(=O)c(C(=O)O)cn4[C@@H]3C[C@@H]3F)CC2CN)cc1 (some centres undefined)
Result: 0.015

====

Documented MIC across a set of molecules
System: Staphylococcus aureus
test_summary: Antibacterial activity against methicillin-sensitive Staphylococcus aureus 14-1 after 18 to 24 hrs
Type: functional
Give the value in µg/mL but do not write µg/mL after it.

These solved cases illustrate the format of a correct answer.
NCC1CN(c2nc3c(cc2F)c(=O)c(C(=O)O)cn3[C@@H]2C[C@@H]2F)C/C1=N\OCc1ccc(F)cc1 (stereo partly drawn)
4
COc1cc(CO/N=C2\CN(c3nc4c(cc3F)c(=O)c(C(=O)O)cn4[C@@H]3C[C@@H]3F)CC2CN)cc(OC)c1 (stereo partly drawn)
4

Request: Query: MIC; subject: CO/N=C1\CN(c2nc3c(cc2F)c(=O)c(C(=O)O)cn3[C@@H]2C[C@@H]2F)CC1(C)N (stereo partly drawn)
Result: 16

Request: Query: MIC; subject: CO/N=C1\CN(c2nc3c(cc2F)c(=O)c(C(=O)O)cn3[C@@H]2C[C@@H]2F)CC1N (stereo partly drawn)
Result: 32
